# Test Name: Cytotoxicity against human Hs578T cells by SRB assay
# Assay type: functional
# Test Conditions: Hs-578T
Recorded Metric: GI50

The examples below pair each entry with its known result.
COc1ccc(/C=C/c2cc(OC)cc(OC)c2/C=C(\C#N)c2ccccc2OC)cc1 :: 1.34 µM
COc1ccc(/C=C(\C#N)c2cc(OC)c(OC)c(OC)c2)cc1 :: < 0.01 µM
COc1ccc(/C=C(/C#N)c2ccc(OC)c(OC)c2)cc1O :: 0.03 µM

Provide reported GI50 for each item, in the same order as listed.
1. COc1ccc(/C=C(\C#N)c2cc(OC)cc(OC)c2)cc1
2. COc1ccc(/C=C(\C#N)c2cc(OC)c(OC)c(OC)c2)cc1O
3. COc1ccc(/C=C(\C#N)c2ccc(OC)c(OC)c2)cc1O
4. COc1ccc(/C=C(/C#N)c2cc(OC)c(OC)c(OC)c2)cc1O
5. COc1cc(/C=C(\C#N)c2cc(OC)c(OC)c(OC)c2)cc(OC)c1

[out]
0.31 µM
< 0.01 µM
0.03 µM
< 0.01 µM
16.7 µM

The value of GI50 measured for the compound COc1ccc(/C=C/c2cc(OC)cc(OC)c2/C=C(\C#N)c2ccc(OC)cc2)cc1 turned out to be 0.68 µM
